assay type: in vivo, human; conditions: human, plasma, po, 4 mg, AUC0‐t, single oral 4-mg dose; group 4 mild hepatic impairment, n = 8; arithmetic mean (SD)
reported_metric: AUC (ng·h/mL)
Give just the number in ng·h/mL; leave the unit off.

Q: Name the recorded AUC for Nc1cccc2c1C(=O)N(C1CCC(=O)NC1=O)C2=O (stereo not shown) [Pomalidomide] .
Ans: 728

###

type: in vivo, human; settings: human, plasma, po, 4 mg, AUC0‐t, Geometric Mean, single oral 4-mg dose; severe hepatic impairment, N = 8
reported_metric: AUC (ng·h/mL)
Give just the number in ng·h/mL; leave the unit off.

Q: Name the recorded AUC for Nc1cccc2c1C(=O)N(C1CCC(=O)NC1=O)C2=O (stereo not shown) [Pomalidomide] .
Ans: 762

###

type: in vivo, human; settings: human, plasma, po, 4 mg, Cmax, Geometric Mean, single oral 4-mg dose; moderate hepatic impairment, N = 8
reported_metric: Cmax (ng/mL)
Give just the number in ng/mL; leave the unit off.

Q: Name the recorded Cmax for Nc1cccc2c1C(=O)N(C1CCC(=O)NC1=O)C2=O (stereo not shown) [Pomalidomide] .
Ans: 56.2

###

assay type: in vivo, human; details: human, plasma, po, 4 mg, Cmax, Geometric Mean, single oral 4-mg dose; healthy, N = 8
reported_metric: Cmax

Q: Name the recorded Cmax for Nc1cccc2c1C(=O)N(C1CCC(=O)NC1=O)C2=O (stereo not shown) [Pomalidomide] .
Ans: 59.2 ng/mL

###

type: in vivo, human; details: human, plasma, po, 4 mg, Cmax, single oral 4-mg dose; group 2 severe hepatic impairment, n = 8; arithmetic mean (SD)
reported_metric: Cmax (ng/mL)
Give just the number in ng/mL; leave the unit off.

Q: Name the recorded Cmax for Nc1cccc2c1C(=O)N(C1CCC(=O)NC1=O)C2=O (stereo not shown) [Pomalidomide] .
Ans: 49.1

###

assay type: in vivo, human; conditions: human, plasma, po, 4 mg, tmax, Geometric Mean, single oral 4-mg dose; severe hepatic impairment, N = 8; Table 4
reported_metric: Tmax (h)
Give just the number in h; leave the unit off.

Q: Name the recorded Tmax for Nc1cccc2c1C(=O)N(C1CCC(=O)NC1=O)C2=O (stereo not shown) [Pomalidomide] .
Ans: 2.5

###

assay type: in vivo, human; details: human, plasma, po, 4 mg, AUC, Geometric Mean, single oral 4-mg dose; severe hepatic impairment, N = 8
reported_metric: AUC (µg·h/mL)
Give just the number in µg·h/mL; leave the unit off.

Q: Name the recorded AUC for Nc1cccc2c1C(=O)N(C1CCC(=O)NC1=O)C2=O (stereo not shown) [Pomalidomide] .
Ans: 0.833

###

assay type: in vivo, human; details: human, plasma, po, 4 mg, tmax, Geometric Mean, single oral 4-mg dose; mild hepatic impairment, N = 8; Table 4
reported_metric: Tmax (h)
Give just the number in h; leave the unit off.

Q: Name the recorded Tmax for Nc1cccc2c1C(=O)N(C1CCC(=O)NC1=O)C2=O (stereo not shown) [Pomalidomide] .
Ans: 2.25

###

assay type: in vivo, human; conditions: human, plasma, po, 4 mg, AUC, Geometric Mean, single oral 4-mg dose; healthy, N = 8
reported_metric: AUC (ng·h/mL)
Give just the number in ng·h/mL; leave the unit off.

Q: Name the recorded AUC for Nc1cccc2c1C(=O)N(C1CCC(=O)NC1=O)C2=O (stereo not shown) [Pomalidomide] .
Ans: 486

###

format: in vivo, human; settings: human, plasma, po, 4 mg, AUC0‐t, single oral 4-mg dose; group 2 severe hepatic impairment, n = 8; arithmetic mean (SD)
reported_metric: AUC (ng·h/mL)
Give just the number in ng·h/mL; leave the unit off.

Q: Name the recorded AUC for Nc1cccc2c1C(=O)N(C1CCC(=O)NC1=O)C2=O (stereo not shown) [Pomalidomide] .
Ans: 822

###

assay type: in vivo, human; conditions: human, plasma, po, 4 mg, Cmax, Geometric Mean, single oral 4-mg dose; severe hepatic impairment, N = 8
reported_metric: Cmax (ng/mL)
Give just the number in ng/mL; leave the unit off.

Q: Name the recorded Cmax for Nc1cccc2c1C(=O)N(C1CCC(=O)NC1=O)C2=O (stereo not shown) [Pomalidomide] .
Ans: 44.9

###

assay type: in vivo, human; details: human, plasma, po, 4 mg, AUC, Geometric Mean, single oral 4-mg dose; moderate hepatic impairment, N = 8
reported_metric: AUC
Respond with a number, then the unit of measure.

Q: Name the recorded AUC for Nc1cccc2c1C(=O)N(C1CCC(=O)NC1=O)C2=O (stereo not shown) [Pomalidomide] .
Ans: 764 ng·h/mL

###

assay type: in vivo, human; conditions: human, plasma, po, 4 mg, AUC (time 0 extrapolated to infinity), single oral 4-mg dose; group 1 healthy subjects, n = 8; arithmetic mean (SD)
reported_metric: AUC(0-inf) (ng·h/mL)
Give just the number in ng·h/mL; leave the unit off.

Q: Name the recorded AUC(0-inf) for Nc1cccc2c1C(=O)N(C1CCC(=O)NC1=O)C2=O (stereo not shown) [Pomalidomide] .
Ans: 498

###

type: in vivo, human; details: human, plasma, po, 4 mg, AUC0‐t, Geometric Mean, single oral 4-mg dose; moderate hepatic impairment, N = 8
reported_metric: AUC (ng·h/mL)
Give just the number in ng·h/mL; leave the unit off.

Q: Name the recorded AUC for Nc1cccc2c1C(=O)N(C1CCC(=O)NC1=O)C2=O (stereo not shown) [Pomalidomide] .
Ans: 725

###

assay type: in vivo, human; settings: human, plasma, po, 4 mg, Cmax, single oral 4-mg dose; group 4 mild hepatic impairment, n = 8; arithmetic mean (SD)
reported_metric: Cmax (ng/mL)
Give just the number in ng/mL; leave the unit off.

Q: Name the recorded Cmax for Nc1cccc2c1C(=O)N(C1CCC(=O)NC1=O)C2=O (stereo not shown) [Pomalidomide] .
Ans: 56.2

###

assay type: in vivo, human; settings: human, plasma, po, 4 mg, tmax, single oral 4-mg dose; group 1 healthy subjects, n = 8; median (min, max)
reported_metric: Tmax
Respond with a number, then the unit of measure.

Q: Name the recorded Tmax for Nc1cccc2c1C(=O)N(C1CCC(=O)NC1=O)C2=O (stereo not shown) [Pomalidomide] .
Ans: 1.5 h

###

type: in vivo, human; conditions: human, plasma, po, 4 mg, t1/2, single oral 4-mg dose; group 2 severe hepatic impairment, n = 8; arithmetic mean (SD)
reported_metric: half-life

Q: Name the recorded half-life for Nc1cccc2c1C(=O)N(C1CCC(=O)NC1=O)C2=O (stereo not shown) [Pomalidomide] .
Ans: 12.7 h

###

type: in vivo, human; conditions: human, plasma, po, 4 mg, AUC (time 0 extrapolated to infinity), single oral 4-mg dose; group 3 moderate hepatic impairment, n = 8; arithmetic mean (SD)
reported_metric: AUC(0-inf) (ng·h/mL)
Give just the number in ng·h/mL; leave the unit off.

Q: Name the recorded AUC(0-inf) for Nc1cccc2c1C(=O)N(C1CCC(=O)NC1=O)C2=O (stereo not shown) [Pomalidomide] .
Ans: 810

###

type: in vivo, human; conditions: human, plasma, po, 4 mg, tmax, single oral 4-mg dose; group 4 mild hepatic impairment, n = 8; median (min, max)
reported_metric: Tmax (h)
Give just the number in h; leave the unit off.

Q: Name the recorded Tmax for Nc1cccc2c1C(=O)N(C1CCC(=O)NC1=O)C2=O (stereo not shown) [Pomalidomide] .
Ans: 2

###

assay type: in vivo, human; conditions: human, plasma, po, 4 mg, AUC0‐t, Geometric Mean, single oral 4-mg dose; mild hepatic impairment, N = 8
reported_metric: AUC (ng·h/mL)
Give just the number in ng·h/mL; leave the unit off.

Q: Name the recorded AUC for Nc1cccc2c1C(=O)N(C1CCC(=O)NC1=O)C2=O (stereo not shown) [Pomalidomide] .
Ans: 693

###

assay type: in vivo, human; settings: human, plasma, po, 4 mg, AUC0‐t, Geometric Mean, single oral 4-mg dose; healthy, N = 8
reported_metric: AUC (ng·h/mL)
Give just the number in ng·h/mL; leave the unit off.

Q: Name the recorded AUC for Nc1cccc2c1C(=O)N(C1CCC(=O)NC1=O)C2=O (stereo not shown) [Pomalidomide] .
Ans: 481

###

type: in vivo, human; conditions: human, plasma, po, 4 mg, AUC (time 0 extrapolated to infinity), single oral 4-mg dose; group 4 mild hepatic impairment, n = 8; arithmetic mean (SD)
reported_metric: AUC(0-inf) (ng·h/mL)
Give just the number in ng·h/mL; leave the unit off.

Q: Name the recorded AUC(0-inf) for Nc1cccc2c1C(=O)N(C1CCC(=O)NC1=O)C2=O (stereo not shown) [Pomalidomide] .
Ans: 787

The origin of these recorded values is paper PMC6585766.
